Test system: NCI-H2085
Assay: relative viability (nuclei count vs DMSO), 5 days (fraction); higher = more cells survive
Conditions: first compound 0.08 µM
Reported relative viability values follow for various compounds

Take a look at these entries with their results.
# compound, result
rows = [
    ("Oc1nc(-c2ccc(C(F)(F)F)cc2)nc2c1CSCC2 [XAV939] + COc1cc2c(Oc3ccc(NC(=O)C4(C(=O)Nc5ccc(F)cc5)CC4)cc3F)ccnc2cc1OCCCN1CCOCC1 [Foretinib] (partner 0.25 µM)", 1.06),
    ("C=C1C(=O)O[C@@H](CCCCCCCC)[C@@H]1C(=O)O [C-75] + Cc1nc(NC(=O)N2CCC[C@H]2C(N)=O)sc1-c1ccnc(C(C)(C)C(F)(F)F)c1 [Alpelisib] (partner 2 µM)", 0.974),
    ("C=C1C(=O)O[C@@H](CCCCCCCC)[C@@H]1C(=O)O [C-75] + NC(=O)Nc1cc(-c2cccc(F)c2)sc1C(=O)N[C@H]1CCCNC1 [AZD7762] (partner 0.2 µM)", 0.95),
    ("C=C1C(=O)O[C@@H](CCCCCCCC)[C@@H]1C(=O)O [C-75] + CC1(C)CCC(c2ccc(Cl)cc2)=C(CN2CCN(c3ccc(C(=O)NS(=O)(=O)c4ccc(N[C@H](CCN5CCOCC5)CSc5ccccc5)c(S(=O)(=O)C(F)(F)F)c4)cc3)CC2)C1 [Navitoclax] (partner 0.5 µM)", 1.15),
]

Now take the following compound into account.
Recorded relative viability for C=C1C(=O)O[C@@H](CCCCCCCC)[C@@H]1C(=O)O [C-75] + CS(=O)(=O)N1CCN(Cc2cc3nc(-c4cccc5[nH]ncc45)nc(N4CCOCC4)c3s2)CC1 [Pictilisib] (partner 1 µM) , please?
0.504
